Tested on: ACHN renal
Experiment: NCI tumour cell line growth inhibition, 48 h
The entries below come with measured TGI values attached.
Reported Metric: TGI

compound=CS(=O)(=O)O[C@H]1C(=O)N(c2cc3c4ccccc4ccc3c3ccccc23)[C@@H]1c1ccccc1 experimental_result="> 100 µM"
compound=CC(C)(C)OC(=O)NCCc1ccc(N)cc1 experimental_result="> 100 µM"
compound=O=C(Cc1nc2ccccc2o1)C(=O)Nc1ccccc1C(F)(F)F experimental_result="> 100 µM"
compound="CCOC(=O)C1CCCCN1C(=O)OCc1ccccc1 (configuration not stated)" experimental_result="> 100 µM"
compound="CC(=O)OC1C2CCC1C1C2N=NN1c1ccc([N+](=O)[O-])cc1 (configuration not stated)" experimental_result="> 100 µM"
compound="CCCCCCCCOCC(CO)OCCCCCCCC (configuration not stated)" experimental_result="31.8 µM"
compound="C=CCSc1ncnc2c1ncn2C1OC(CO)C(O)C1O (configuration not stated)" experimental_result="> 100 µM"
compound=Cc1cc2nc(C#N)c(N3CCN(c4ccc([N+](=O)[O-])cc4)CC3)nc2cc1C experimental_result="> 100 µM"
compound=CC(C)OC(=O)C1=C2c3ncccc3C(=O)N2[C@@H](Cl)[C@H](Cl)[C@H]1Cl experimental_result="> 100 µM"
compound="O=C1c2[nH]c3ccccc3c2CCN2CCCCC12 (configuration not stated)" experimental_result="46 µM"
compound="COc1ccc(C(=O)NCCC2CN(S(=O)(=O)C(F)(F)F)c3ccccc32)c(OC)c1 (configuration not stated)" experimental_result="> 100 µM"
compound=CC1=NC(C)(C)[N+]([O-])=C1 experimental_result="> 10 µM"
compound="CCOCCOC(=O)C1CCC(=O)N1CN(C(C)=O)c1cc(OC)ccc1OC (configuration not stated)" experimental_result="> 100 µM"
compound=COc1cccc(/C=N/[N-]C(=O)c2ccncc2)c1[O-].[Ni+2].[OH3+] experimental_result="> 100 µM"
compound=COc1cc(OC)c2c(c1)C(=O)C(CC1(C)OCCCO1)=CC2=O experimental_result="21.6 µM"
compound="CN(CCCCCl)P(=O)(OCC1=CC(=O)c2ccccc2C1=O)OC[C@H]1O[C@@H](n2cc(F)c(=O)[nH]c2=O)C[C@@H]1O (some centres not stated)" experimental_result="14.7 µM"
compound="OC(c1ccoc1)c1cc2ccccc2s1 (configuration not stated)" experimental_result="> 10 µM"
compound="COC(=O)CN(CC1O[C@@H]2OC(C)(C)O[C@@H]2C1N=[N+]=[N-])C(=O)OCc1ccccc1 (some centres not stated)" experimental_result="> 100 µM"
compound="CC1CCC(=O)NCCCCC(=O)N1 (configuration not stated)" experimental_result="> 100 µM"
compound="CCOC(=O)C(C)c1c(C(=O)c2ccc(C)nc2)c2ccccc2n1C (configuration not stated)" experimental_result="> 100 µM"
compound="CNC(=O)NCC1OC(n2cnc3c(NC(=O)Nc4ccccc4)ncnc32)C(O[Si](C)(C)C(C)(C)C)C1CC(=O)N(C)OC (configuration not stated)" experimental_result="> 100 µM"
compound=O=C1C(c2c(O)[nH]c3ccc([N+](=O)[O-])cc23)=Nc2ccccc21 experimental_result="> 100 µM"
compound=CCC(=O)c1cc(C(=O)C(=S)SC)cc(C(=O)C(=S)SC)c1 experimental_result="> 100 µM"
compound="CC(N)Cc1ccc(F)cc1 (configuration not stated)" experimental_result="> 100 µM"
compound="C/C=C(\\C)[C@@H](O)C(=O)O[C@@H]1CC(C(C)(C)O)[C@](C)(CCC(=O)OC)[C@H]2[C@H](OC(=O)[C@H](O)[C@H](C)CC)C[C@]3(C)C(=CC[C@H]3[C@H]3CO[C@H](C=C(C)C)C3)[C@]12C (some centres not stated)" experimental_result="34.1 µM"
compound=COC(=O)[C@@H](C)C[C@H](Cc1ccc2ccccc2c1)NC(=O)c1csc([C@@H](C[C@H](C(C)C)N(C)C(=O)[C@@H](NC(=O)[C@H]2CCCCN2C)C(C)C)OC(C)=O)n1 experimental_result="4.59 µM"
compound="O/N=C1/C(=C/c2ccc(Cl)c(Cl)c2)CCCC1C(NO)c1ccc(Cl)c(Cl)c1 (configuration not stated)" experimental_result="33 µM"
compound=COc1cc([C@@H]2c3cc4c(cc3[C@@H](Nc3ccc(N=Cc5ccc(C(=O)O[C@@H](C(=O)O[C@H]6C[C@@]7(O)[C@@H](OC(=O)c8ccccc8)[C@@H]8[C@]9(OC(C)=O)CO[C@@H]9C[C@H](O)[C@@]8(C)C(=O)[C@H](OC(C)=O)C(=C6C)C7(C)C)[C@@H](NC(=O)c6ccccc6)c6ccccc6)cc5)cc3)[C@H]3COC(=O)[C@H]23)OCO4)cc(OC)c1O experimental_result="10.5 µM"
compound=c1cc2c(s1)SSSSS2 experimental_result="31.7 µM"
compound=C=Cc1nc2nnc(CCCCCCCCc3nnc4nc(C=C)[nH]n34)n2[nH]1 experimental_result="> 100 µM"
compound=COc1cccc2c1N[S@](=O)S2 experimental_result="> 100 µM"
compound=O=C([O-])c1cc(I)cc(I)c1[OH2+].O=C([O-])c1cc(I)cc(I)c1[OH2+].[Mn+2] experimental_result="59 µM"
compound=Cc1cc2c(O)c(c1)COCc1cc(C)cc(c1O)COCc1cc(C)cc(c1O)COC2 experimental_result="> 100 µM"
compound=CCn1c(=O)c(Oc2ccc(F)cc2F)cc2cnc(NC3CCOCC3)nc21 experimental_result="> 25 µM"
compound="CC1(C)C(N(O)C(=O)Nc2ccc(Cl)cc2)N(c2ccc(Cl)cc2)C(=O)N1CC(=O)N/N=C/C=C/c1ccc([N+](=O)[O-])o1 (configuration not stated)" experimental_result="> 100 µM"
compound=O=C(CCc1n[nH]c(=S)o1)Nc1ccc(Cl)cc1Cl experimental_result="> 100 µM"
compound=CC/C=C/C[C@H](O[Si](C)(C)C(C)(C)C)[C@H]1C[C@H]2O[C@H]([C@@H](O)C#C[Si](C)(C)C)C[C@H]2O1 experimental_result="29 µM"
